- test.target: Human COX II (Homo sapiens)
- Construct: A 2.0 kb fragment containing the coding region of either human or murine COX-I or human or murine COX-II
- Sequence (P35354 18-604): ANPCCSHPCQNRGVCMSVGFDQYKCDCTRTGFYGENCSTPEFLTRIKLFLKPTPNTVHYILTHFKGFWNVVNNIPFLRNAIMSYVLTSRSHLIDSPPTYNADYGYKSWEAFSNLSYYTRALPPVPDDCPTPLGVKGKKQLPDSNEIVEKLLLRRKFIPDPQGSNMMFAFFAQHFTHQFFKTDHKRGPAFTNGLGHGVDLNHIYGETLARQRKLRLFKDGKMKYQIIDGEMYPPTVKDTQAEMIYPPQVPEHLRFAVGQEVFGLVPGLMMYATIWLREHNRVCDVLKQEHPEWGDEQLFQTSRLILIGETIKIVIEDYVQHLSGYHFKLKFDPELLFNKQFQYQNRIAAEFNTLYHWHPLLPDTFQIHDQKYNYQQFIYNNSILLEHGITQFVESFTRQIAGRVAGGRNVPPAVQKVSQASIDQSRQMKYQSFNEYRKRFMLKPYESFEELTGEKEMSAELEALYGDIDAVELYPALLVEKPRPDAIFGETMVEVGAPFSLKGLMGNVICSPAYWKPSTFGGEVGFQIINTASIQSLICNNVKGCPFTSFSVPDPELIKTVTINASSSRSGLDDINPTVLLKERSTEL
- assay.summary: COX II activity in vitro (PGE2 ELISA, recombinant enzyme)
- measurement.conditions: arachidonic acid 10 μM, pre-incubation 10-20 minutes; read-out: Human COX II ID50

molecule	measurement.units	IC50
CS(=O)(=O)c1ccc(-c2[nH]c(SCc3ccc4ccccc4n3)nc2-c2ccc(F)cc2)cc1	µM	1.5
CCOCc1nc(-c2ccc(F)cc2)c(-c2ccc(S(C)(=O)=O)cc2)[nH]1	µM	3.3
Cc1ccc(-c2[nH]c(C(F)(F)F)nc2-c2ccc(S(C)(=O)=O)cc2)cc1	µM	0.6
CS(=O)(=O)c1ccc(-c2[nH]c(C(O)C(F)(F)F)nc2-c2ccc(F)cc2)cc1 (centres unmarked)	µM	3.9
CS(=O)(=O)c1ccc(-c2nc(C(F)(F)F)[nH]c2-c2ccc(F)c(F)c2)cc1	µM	0.2
CS(=O)(=O)c1ccc(-c2[nH]c(S)nc2-c2ccc(F)cc2)cc1	µM	55
CS(=O)(=O)c1ccc(-c2nc(C(F)(F)F)[nH]c2-c2ccccc2)cc1	µM	0.5
CS(=O)(=O)c1ccc(-c2nc(C(F)(F)F)[nH]c2-c2ccc(F)cc2)cc1	µM	0.2

###

Listed here: items and their measured melting point.
measurement.name: melting point

compound	data.value
Cn1c(C(F)(F)F)nc(-c2ccc(F)cc2)c1-c1ccc(S(C)(=O)=O)cc1 [Example 45]	193 to 195 °C
CS(=O)(=O)c1ccc(-c2[nH]c(C(O)C(F)(F)F)nc2-c2ccc(F)cc2)cc1 (stereo not shown) [Example 90]	126 to 130 °C
CS(=O)(=O)c1ccc(-c2nc(C(F)(F)F)[nH]c2-c2ccsc2)cc1 [Example 76]	230 to 232 °C
CS(=O)(=O)c1ccc(-c2[nH]c(SCc3ccc4ccccc4n3)nc2-c2ccc(F)cc2)cc1 [Example 50]	179 to 182 °C
COc1ccc(-c2[nH]c(C(F)(F)F)nc2-c2ccc(S(C)(=O)=O)cc2)cc1Cl [Example 57]	288 to 291 °C
CS(=O)(=O)c1ccc(-c2[nH]c(S(=O)(=O)Cc3ccccc3)nc2-c2ccc(F)cc2)cc1 [Example 51]	211 to 213 °C
COc1ccc(-c2nc(C(F)(F)F)[nH]c2-c2ccc(S(C)(=O)=O)cc2)cc1C [Example 42]	265 to 267 °C
CS(=O)(=O)c1ccc(-c2nc(C(F)(F)F)[nH]c2-c2cccc(Cl)c2)cc1 [Example 68]	224 to 226 °C
COC(C)c1nc(-c2ccc(F)cc2)c(-c2ccc(S(C)(=O)=O)cc2)[nH]1 (stereo not shown) [Example 94]	212 °C
CS(=O)(=O)c1ccc(-c2nc(-c3ccco3)[nH]c2-c2ccc(F)cc2)cc1 [Example 7]	244 to 246 °C (dec.)

###

- test.target: Human COX I (Homo sapiens)
- Construct: A 2.0 kb fragment containing the coding region of either human or murine COX-I or human or murine COX-II
- Sequence (P23219 24-599): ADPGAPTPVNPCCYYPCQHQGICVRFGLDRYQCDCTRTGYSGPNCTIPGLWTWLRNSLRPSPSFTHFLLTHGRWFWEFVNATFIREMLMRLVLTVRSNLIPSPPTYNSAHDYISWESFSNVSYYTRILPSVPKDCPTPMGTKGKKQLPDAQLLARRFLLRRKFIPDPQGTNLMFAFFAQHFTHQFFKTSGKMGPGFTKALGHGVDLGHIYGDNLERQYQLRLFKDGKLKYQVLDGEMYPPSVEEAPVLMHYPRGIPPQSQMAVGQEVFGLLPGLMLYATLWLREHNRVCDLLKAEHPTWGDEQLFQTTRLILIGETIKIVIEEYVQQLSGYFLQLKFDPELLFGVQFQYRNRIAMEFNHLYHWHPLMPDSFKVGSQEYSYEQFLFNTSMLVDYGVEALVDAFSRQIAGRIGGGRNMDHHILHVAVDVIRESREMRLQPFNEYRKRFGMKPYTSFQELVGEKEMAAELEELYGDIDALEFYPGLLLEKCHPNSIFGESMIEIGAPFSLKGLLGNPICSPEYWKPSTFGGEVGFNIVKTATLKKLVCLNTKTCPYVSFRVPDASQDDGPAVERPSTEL
- assay.summary: COX I activity in vitro (PGE2 ELISA, recombinant enzyme)
- measurement.conditions: arachidonic acid 10 μM, pre-incubation 10-20 minutes; read-out: Human COX I ID50
- From the text: A 2.0 kb fragment containing the coding region of either human or murine COX-I or human or murine COX-II was cloned into a BamH1 site of the baculovirus transfer vector pVL1393 (Invitrogen) to generate the baculovirus transfer vectors for COX-I and COX-II in a manner similar to the method of D. R. O'Reilly et al (Baculovirus Expression Vectors: A Laboratory Manual (1992)). […]
measurement.name: IC50

compound	measurement.name	data.value
C=CCOCc1nc(-c2ccc(F)cc2)c(-c2ccc(S(C)(=O)=O)cc2)[nH]1	IC50	> 100 µM
CS(=O)(=O)c1ccc(-c2nc(C(F)(F)F)[nH]c2-c2ccc(Cl)cc2)cc1	IC50	10.4 µM
CC(=O)n1c(C(F)(F)F)nc(-c2ccc(S(C)(=O)=O)cc2)c1-c1cc(C)cc(Cl)c1	IC50	> 100 µM
CS(=O)(=O)c1ccc(-c2nc(C(F)(F)F)[nH]c2-c2ccc(Cl)c(Cl)c2)cc1	IC50	9.6 µM
CS(=O)(=O)c1ccc(-c2[nH]c(S(=O)(=O)Cc3ccccc3)nc2-c2ccc(F)cc2)cc1	IC50	> 100 µM
COc1ccc(-c2[nH]c(C(F)(F)F)nc2-c2ccc(S(C)(=O)=O)cc2)cc1	IC50	5.6 µM
CS(=O)(=O)c1ccc(-c2nc(SCc3ccccc3)[nH]c2-c2ccc(F)cc2)cc1	IC50	2.1 µM
CS(=O)(=O)c1ccc(-c2[nH]c(S(=O)(=O)c3ccccc3)nc2-c2ccc(F)cc2)cc1	IC50	> 100 µM
CS(=O)(=O)c1ccc(-c2[nH]c(C(O)C(F)(F)F)nc2-c2ccc(F)cc2)cc1 (centres unmarked)	IC50	> 100 µM
CS(=O)(=O)c1ccc(-c2nc(C(F)(F)F)[nH]c2-c2ccc(Br)s2)cc1	IC50	12.9 µM
CC(O)(c1nc(-c2ccc(F)cc2)c(-c2ccc(S(C)(=O)=O)cc2)[nH]1)C(F)(F)F (centres unmarked)	IC50	> 100 µM
CC(C)c1nc(-c2ccc(S(C)(=O)=O)cc2)c(-c2ccc(F)cc2)[nH]1	IC50	> 100 µM
CS(=O)(=O)c1ccc(-c2nc(C(F)(F)F)[nH]c2-c2ccccc2Cl)cc1	IC50	> 100 µM
CC(=O)c1nc(-c2ccc(F)cc2)c(-c2ccc(S(C)(=O)=O)cc2)[nH]1	IC50	> 100 µM
CS(=O)(=O)c1ccc(-c2[nH]c(S)nc2-c2ccc(F)cc2)cc1	IC50	10.8 µM
CS(=O)(=O)c1ccc(-c2nc(CO)[nH]c2-c2ccc(F)cc2)cc1	IC50	> 100 µM
CN(C)c1ccc(-c2[nH]c(C(F)(F)F)nc2-c2ccc(S(C)(=O)=O)cc2)cc1	IC50	> 100 µM
